# Tested on: MDA-MB-231
# experiment.notes: Cytotoxicity against human MDA-MB-231 cells assessed as growth inhibition after 72 hrs by MTT based WST-8 assay
# Type: functional, cell-based
# condition.description: MDA-MB-231, 72 h
Field: label. Allowed values: Condition met (IC50 < 8 µM) or Condition not met (IC50 >= 8 µM).

CNC(=O)c1cc(Oc2ccc(NC(=O)Nc3ccc(Cl)c(C(F)(F)F)c3)cc2)ccn1 | Condition met
O=C(Nc1ccc(Oc2ccc(-c3nccs3)cc2)cc1)Nc1cc(C(F)(F)F)ccc1Cl | Condition not met
O=C(Nc1ccc(Oc2ccc(-c3nccs3)cc2)cc1)Nc1cc(Br)cc(C(F)(F)F)c1 | Condition met
O=C(Nc1ccc(Oc2ccc(-c3nccs3)cc2)cc1)Nc1ccc(Cl)c([N+](=O)[O-])c1 | Condition met
O=C(Nc1ccc(Oc2ccc(-c3nccs3)cc2)cc1)Nc1ccc(Cl)c(C(F)(F)F)c1 | Condition met

# strict comparison: is reported IC50 < 8 µM? input = O=C(Nc1ccc(Oc2ccc(-c3nccs3)cc2)cc1)Nc1cccc(C(F)(F)F)c1
Condition not met

# strict comparison: is reported IC50 < 8 µM? input = O=C(Nc1ccc(Oc2ccc(-c3nccs3)cc2)cc1)Nc1ccc(F)c(C(F)(F)F)c1
Condition not met
